system: LOX IMVI melanoma; experiment: NCI-60 one-dose screen, 48 h (100 = growth as untreated, 0 = no growth, -100 = all killed); conditions: 10 µM unless noted
This is part of a sample that, as a whole, favours compounds with a hit. Of some 83,000 tested, about 20% had one in any assay.
Each entry gets label 0 if its growth stays under 10%, and label 1 if its growth is 10% or above.

Observe how each entry below is paired with its result.
Req: Threshold query (growth >= 10%) on COc1cc(C(=O)C[n+]2ccc3ccccc3c2)cc(OC)c1OC
Resp: label 1

Req: Could you please find out whether COc1ccc(C(=O)c2c(N)c(C#N)cn2-c2cccc(OC)c2)cc1 has growth that meets 10% or exceeds it?
Resp: label 1

Req: Can Oc1ccccc1/C=N/Nc1nc(N/N=C/c2ccccc2O)nc(N2CCOCC2)n1 be said to have growth at or above 10%?
Resp: label 0

Req: Hi, just wondering whether O=C(NNc1nc2cc(F)ccc2n2cncc12)c1cnccn1 shows growth of 10% or higher.
Resp: label 1

Req: Is growth for CCOC(=O)c1c(Nc2ccccc2)nn2c(-c3ccc(Br)cc3)ccnc12 at or above 10%?
Resp: label 1

Others:
Req: Test whether the compound COc1cc(-c2nc(SCc3ccc(C)cc3)[nH]c(=O)c2C#N)ccc1OCc1ccccc1 records growth of 10% or higher.
Resp: label 1

* * *

# growth per entry
test system: HOP-92 NSCLC; test: NCI-60 one-dose screen, 48 h (100 = growth as untreated, 0 = no growth, -100 = all killed); details: 10 µM unless noted
The panel holds about 83,000 compounds, 20% with a hit somewhere; the sample as a whole holds those more often.
Field: numeric (%). Do not append units.

Study these solved cases before continuing.
Req: Quote growth reported for CCn1c2ccc(/C=N/OCCCN(C)C)cc2c2cc(/C=N/OCCCN(C)C)ccc21 please.
Resp: 30.6

Req: Answer with the recorded growth for the molecule listed here: COc1ccc2c(ccn2C(=O)N2c3ccccc3Sc3ccccc32)c1
Resp: 25.4

***
Req: Give growth for COc1cc(C(=O)C[n+]2ccc3ccccc3c2)cc(OC)c1OC
Resp: 80

* * *

system: HOP-62 NSCLC; assay: NCI-60 one-dose screen, 48 h; details: 10 µM unless noted
This is part of a sample that, as a whole, favours compounds with a hit. Of some 83,000 tested, about 20% had one in any assay. Activity calls are given as the source filed them. How the source made its calls: active means growth percent below 10; inactive means the rest.
Lab note: assign the record to one of active, inactive

Req: Give the logged outcome of this assay for the following compound: CS(=O)(=O)c1ccc(-c2nn(-c3ccccc3)cc2/C=N/NC(=O)c2ccncc2)cc1
Resp: inactive

Req: // param item: COCCOc1ccc(-c2csc(NC(C)=O)n2)cc1NS(=O)(=O)c1cccc2c(N(C)C)cccc12 ; yields the recorded call
Resp: inactive

Req: Would you mind telling me which call this test gave Clc1ccc(-c2csc(N/N=C/c3nc4ccccc4n3C3CC3)n2)cc1 ?
Resp: inactive

Req: How was CCN(CC)CCCC(C)NCC(=O)NC(c1ccc2c(c1)OCO2)c1cc(Cl)c2cccnc2c1O (centres undefined) classified in this test?
Resp: inactive

Req: Can you look up the reported call for COC[C@@]1(C)CC[C@]2(C)CC[C@]3(C)C(=CC[C@@H]4[C@@]5(C)CCCNC(C)(C)[C@@H]5CC[C@]43C)C2C1 (some centres undefined) for me?
Resp: inactive

More entries:
Req: Hi team, can someone confirm the assay call for COc1cc(/C=N/Nc2ccnc3cc(Cl)ccc23)cc(OC)c1O ?
Resp: active

Req: Tell me the recorded outcome of this test for O=c1[nH]c(CCl)nc2c1cnn2-c1ccccc1 .
Resp: inactive

Req: Field: outcome | Entry: CCOC(=O)C1=C(C)Nc2nc3ccccc3n2C1c1cccc(Br)c1 (centres undefined)
Resp: inactive

Req: # outcome recorded in this test, key = COC(=O)Nc1ccc(-c2nc(-c3cccc(O)c3)c(-c3ccnc(Br)c3)[nH]2)cc1
Resp: inactive

* * *

The reader will find reported growth values listed item by item below.
test system: ACHN renal; assay: NCI-60 one-dose screen, 48 h (100 = growth as untreated, 0 = no growth, -100 = all killed); conditions: 10 µM unless noted
Compounds without any hit were thinned out: in the full panel of roughly 83,000, 20% have a hit.
The figure you give is taken to be in %; do not add the unit.

Use the examples below as a reference point.
Req: Report measured growth; entry is O=C1[C@H]2Cc3c([nH]c4ccccc34)[C@@H](c3c(Cl)cccc3Cl)N2C(=O)CN1C1CCN(Cc2ccccc2)CC1
Resp: 93

Req: Annotate the compound COC[C@@]1(C)CC[C@]2(C)CC[C@]3(C)C(=CC[C@@H]4[C@@]5(C)CCCNC(C)(C)[C@@H]5CC[C@]43C)C2C1 (some centres undefined) with its measured growth.
Resp: 87.1

Req: Find the measured growth of C#C[C@]1(O)CC[C@H]2[C@@H]3CC=C4c5sc(-c6cccc(F)c6)nc5CC[C@]4(C)[C@H]3CC[C@@]21C and report it.
Resp: 85.4

Req: For the compound CCOC(=O)Nc1ccc(-c2nc(-c3cccc(O)c3)c(-c3ccnc(Br)c3)[nH]2)cc1 , report growth.
Resp: 36.5

Req: Please indicate growth recorded for Cc1nc(-c2cc3ccccc3c(N3CCN(C)CC3)n2)cs1
Resp: 94

Further cases:
Req: Entry O=C(NNc1nc2cc(F)ccc2n2cncc12)c1cnccn1 needs its growth filled in; supply it.
Resp: 9.12

* * *

system: 786-0 renal; assay: NCI-60 one-dose screen, 48 h (100 = growth as untreated, 0 = no growth, -100 = all killed); settings: 10 µM unless noted
The panel holds about 83,000 compounds, 20% with a hit somewhere; the sample as a whole holds those more often.
recorded.endpoint: growth (%)
Respond numerically; units are % and should not be typed.

Below are worked cases with known answers.
Req: Annotate the compound NC(=O)c1c(NC(=O)c2cccc(OC(F)(F)F)c2)sc2c1CCC(=O)C2 with its measured growth.
Resp: 89.4

Req: Consider the compound Fc1ccccc1/C=C(/C1=NCCN1)n1cnc2ccccc21 and give its recorded growth.
Resp: 99

Req: Report growth for CCN1CCN(Cc2ccc(C(=O)Nc3nc4ccc(Oc5ccnc(C(=O)NC)c5)cc4s3)cc2C(F)(F)F)CC1
Resp: 39.5

Would you kindly look at the next entry?
Req: Indicate its recorded growth; the compound in question is CS(=O)(=O)c1ccc(-c2nn(-c3ccccc3)cc2/C=C/C(=O)c2ccc(Br)cc2)cc1
Resp: 91.5

* * *

Tested on: HCT-116 colon
Test: NCI-60 one-dose screen, 48 h (100 = growth as untreated, 0 = no growth, -100 = all killed)
Details: 10 µM unless noted
Protocol: Growth inhibition of the HCT-116 human tumor cell line is measured as a screen for anti-cancer activity. Cells are grown in 96 well plates and exposed to the test compound for 48 hours. Compounds are tested at a single concentration, which is 10^-5 M for most compounds. The reported endpoint is percent growth (GI% or GIPRCNT), where numbers from 0 - 100% represent growth inhibition, and numbers from -100% - 0 represent cell death. For example, a value of 40 represents 60% growth inhibition. […]
This is part of a sample that, as a whole, favours compounds with a hit. Of some 83,000 tested, about 20% had one in any assay.
TRUE if growth is below 20%. FALSE if not; exact matches included in FALSE.

Answered cases to consult:
Req: Strictly below 20% in growth? O=C(Nc1cccc(-c2nc(-c3ccc(NC(=O)c4cccs4)cc3Cl)no2)c1)Nc1ccc(NC(=O)C2CC2)c(C(F)(F)F)c1
Resp: TRUE

Req: growth strictly < 20% for this compound? CN(c1ccc(Br)cc1)S(=O)(=O)c1ccc(-c2cnc(C3CC3)o2)cc1
Resp: TRUE

Further cases:
Req: Problem: For the compound COc1cc2c3c(n(CCCNC4CCCC4)c(=O)c2cc1OC)-c1cc2c(cc1C3=O)OCO2 , is growth under 20%?
Resp: TRUE

Req: Below 20% on growth? Entry CCN1CCN(c2cc(C(=O)Nc3nc4ccc(Oc5ccnc(C(=O)NC)c5)cc4s3)cc(C(F)(F)F)c2)CC1
Resp: FALSE

Req: hey, is growth for O=C(COc1ccc(/C=C2\SC(=O)NC2=O)cc1)Nc1ccc(C(=O)/C=C/c2cc3ccccc3nc2Cl)cc1 lower than 20% or not?
Resp: TRUE

Req: Does the reported growth of the following compound sit strictly below 20%? C=CCn1c(SCC(=O)Nc2ccc(OC)cc2)nnc1-c1ccc(Cl)cc1
Resp: FALSE

Req: Please let me know if COc1ccc2c(C3=C(c4cn(C)c5ccccc45)C(=O)NC3=O)coc2c1 shows growth below 20%.
Resp: TRUE

Req: For this compound, is growth lower than 20%? O=C1Nc2ccc(Cl)cc2/C1=C/c1ccc(OCc2ccc(Br)cc2F)cc1
Resp: FALSE

Req: Given O=C(Nc1ccc(Cl)cc1)Nc1nc2ccc([N+](=O)[O-])cc2s1 , is recorded growth strictly lower than 20%?
Resp: TRUE

Req: Determine if COc1ccc2c(c1)c(-c1nnc(N)nc1-c1cn(C)c3ccccc13)cn2C shows growth strictly lower than 20%.
Resp: FALSE

Req: Find out if reported growth for Cc1ccc(Cc2cnc(NC(=O)/C(C#N)=C/c3ccc(-c4ccc(Cl)cc4)o3)s2)cc1 is less than 20%
Resp: FALSE

Req: # strict comparison: is reported growth < 20%? input = O=S(=O)(Nc1cc(Cl)c(F)c(Cl)c1)c1ccc(-c2cnc(C3CC3)o2)cc1
Resp: FALSE

Req: Is it true that growth reported for COc1cc2oc(-c3cccc(NC(=O)c4cc(NC(=O)[C@H](C)NC(=O)OC(C)(C)C)ccc4C)c3)cc(=O)c2c(OC)c1OC is less than 20%?
Resp: FALSE

Req: Find out if reported growth for CCN1C(=O)N(CC)C2SC(N/N=C/c3ccccc3F)=NC21 (stereo not given) is less than 20%
Resp: TRUE

Req: Confirm or reject: growth of COc1ccc(-c2nc3cc(Cl)c(Cl)cc3n2CC(=O)N=Nc2c(O)[nH]c3ccccc23)cc1 lies strictly below 20%
Resp: FALSE

Req: API: query returns whether the compound falls strictly under 20% in growth. Query: CC(C)c1nn(-c2ccccc2)c(N2CCCCC2)c1/C=N/NC(N)=S
Resp: FALSE

Req: Hello, I'm reviewing records and need to know if growth of NS(=O)(=O)c1ccc(Nc2nc(N/N=C/c3ccc(F)cc3)nc(Nc3ccccc3)n2)cc1 is below 20%. Could you check?
Resp: FALSE

Req: Item O=C(CSc1nnc(-c2cccs2)n1-c1ccccc1)Nc1ccc(F)cc1 : growth beneath 20%, strictly?
Resp: FALSE
